# Assayed Target: histone deacetylase, subtype 1 (HDAC1) (Homo sapiens)
# Construct: Flag; made in house
# Protocol Details: HDAC1-Flag assay (in vitro deacetylation assay)
# Type: biochemical
# Study Conditions: Table 1, benzothiophene backbone; concentration for 50% inhibition of deacetylation; substrate at Km; unit inferred, text gives nm; read-out: HDAC Inhibition
Response field label: string, one of yes (1) (IC50 strictly below 80 nM) or no (0).

Consider the following illustrative entries.
O=C(NO)c1cc2ccc(CNCc3ccccc3)cc2s1 yes (1)
O=C(NO)c1cc2cc(NC(=O)C(c3ccccc3)c3ccccc3)ccc2s1 no (0)

Ask: Item "O=C(CN(CC(=O)Nc1ccccc1)c1ccc2cc(C(=O)NO)sc2c1)Nc1ccccc1" : IC50 beneath 80 nM, strictly?
Result: yes (1)

Ask: Item "O=C(NCc1ccccn1)c1ccc2cc(C(=O)NO)sc2c1" : IC50 beneath 80 nM, strictly?
Result: no (0)

Ask: Item "O=C(NO)c1cc2cc(CNCCN3CCOCC3)ccc2s1" : IC50 beneath 80 nM, strictly?
Result: no (0)

Ask: Item "CC(C)(C(=O)Nc1ccc2cc(C(=O)NO)sc2c1)c1ccccc1" : IC50 beneath 80 nM, strictly?
Result: yes (1)

Ask: Item "O=C(CN1CCN(c2ccccc2Cl)CC1)Nc1ccc2cc(C(=O)NO)sc2c1" : IC50 beneath 80 nM, strictly?
Result: yes (1)

Ask: Item "COc1cccc(CNC(=O)c2ccc3sc(C(=O)NO)cc3c2)c1" : IC50 beneath 80 nM, strictly?
Result: no (0)

Ask: Item "O=C(NCc1ccccc1)c1ccc2sc(C(=O)NO)cc2c1" : IC50 beneath 80 nM, strictly?
Result: yes (1)

---

Reported IC50 values for a set of compounds
# Assayed Target: histone deacetylase, subtype 1 (HDAC1) (Homo sapiens, UniProt Q13547)
# Construct: Flag; made in house
# Sequence (Q13547 whole entry): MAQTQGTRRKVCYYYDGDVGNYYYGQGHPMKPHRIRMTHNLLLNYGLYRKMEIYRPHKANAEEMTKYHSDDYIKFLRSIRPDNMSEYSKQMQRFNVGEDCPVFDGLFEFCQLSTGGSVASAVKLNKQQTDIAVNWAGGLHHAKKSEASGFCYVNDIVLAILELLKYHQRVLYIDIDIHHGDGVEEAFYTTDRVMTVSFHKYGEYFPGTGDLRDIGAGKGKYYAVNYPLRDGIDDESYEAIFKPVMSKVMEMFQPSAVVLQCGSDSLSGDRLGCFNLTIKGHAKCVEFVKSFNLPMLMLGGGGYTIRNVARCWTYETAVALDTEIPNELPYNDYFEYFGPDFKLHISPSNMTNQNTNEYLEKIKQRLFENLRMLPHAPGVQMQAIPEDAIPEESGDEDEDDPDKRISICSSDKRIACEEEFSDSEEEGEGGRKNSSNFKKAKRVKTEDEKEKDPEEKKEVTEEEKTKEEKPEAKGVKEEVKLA
# Protocol Details: HDAC1-Flag assay (in vitro deacetylation assay)
# Format: biochemical
# Study Conditions: Table 2, thiophene backbone; concentration for 50% inhibition of deacetylation; substrate at Km; unit inferred, text gives nm; read-out: HDAC Inhibition
Give the number; nM is assumed, so skip it.

Compound	Assayed Target	IC50 (nM)
O=C(Nc1ccc(C(=O)NO)s1)c1ccccc1 [Compound 56]	histone deacetylase, subtype 1 (HDAC1) (Homo sapiens, UniProt Q13547)	714
O=C(/C=C/c1ccc(C(=O)NO)s1)NCCc1ccccc1 [Compound 65]	histone deacetylase, subtype 1 (HDAC1) (Homo sapiens, UniProt Q13547)	41
O=C(NO)c1ccc(-c2cccc(CN3CCc4ccccc4C3)c2)s1 [Compound 68]	histone deacetylase, subtype 1 (HDAC1) (Homo sapiens, UniProt Q13547)	417
O=C(CCc1ccc(C(=O)NO)s1)Nc1ccccc1 [Compound 80]	histone deacetylase, subtype 1 (HDAC1) (Homo sapiens, UniProt Q13547)	481
O=C(CCc1ccc(C(=O)NO)s1)NCC(c1ccccc1)c1ccccc1 [Compound 83]	histone deacetylase, subtype 1 (HDAC1) (Homo sapiens, UniProt Q13547)	581
O=C(NO)c1ccc(-c2cccc(CN(CCc3ccccc3)Cc3cnc4ccccc4c3)c2)s1 [Compound 72]	histone deacetylase, subtype 1 (HDAC1) (Homo sapiens, UniProt Q13547)	570

Ask: Reported IC50 for O=C(NO)c1ccc(-c2cccc(CN3CCN(c4ccccc4)CC3)c2)s1 [Compound 69] : what is it?
Result: 174

Ask: Reported IC50 for O=C(NCc1ccccc1)c1ccc(-c2ccc(C(=O)NO)s2)cc1 [Compound 60] : what is it?
Result: 464

Ask: Reported IC50 for O=C(NO)c1cc(-c2ccccc2)cs1 [Compound 199] : what is it?
Result: 9260

Ask: Reported IC50 for O=C(/C=C/c1ccc(C(=O)NO)s1)NCCCc1ccccc1 [Compound 66] : what is it?
Result: 70

Ask: Reported IC50 for O=C(CCc1ccc(C(=O)NO)s1)Nc1cccc(OCc2ccccc2)c1 [Compound 195] : what is it?
Result: 127

---

Reported pIC50 values for a set of compounds
# Assayed Target: histone deacetylase, subtype 1 (HDAC1) (Homo sapiens, UniProt Q13547)
# Construct: Flag; made in house
# Protocol Details: HDAC1-Flag assay (in vitro deacetylation assay)
# Format: biochemical
# Study Conditions: Table 1, benzothiophene backbone; concentration for 50% inhibition of deacetylation; substrate at Km; unit inferred, text gives nm; read-out: HDAC Inhibition
Formally, pIC50 is defined as -log10 of the concentration c, with c in mol/L.

O=C(NCCc1c[nH]c2ccccc12)c1ccc2sc(C(=O)NO)cc2c1 6.89

Ask: Reported pIC50 for "O=C(CN1CCN(C(=O)OCc2ccccc2)CC1)Nc1ccc2cc(C(=O)NO)sc2c1" : what is it?
Result: 6.75

Ask: Reported pIC50 for "O=C(NO)c1cc2ccc(NC(=O)C3(c4ccc(Cl)cc4)CC3)cc2s1" : what is it?
Result: 6.79

Ask: Reported pIC50 for "O=C(NO)c1cc2cc(CNCc3ccccc3)ccc2s1" : what is it?
Result: 6.84

---

# Assayed Target: histone deacetylase, subtype 1 (HDAC1) (Homo sapiens)
# Construct: Flag; made in house
# Protocol Details: HDAC1-Flag assay (in vitro deacetylation assay)
# Assay type: biochemical
# Study Conditions: Table 2, thiophene backbone; concentration for 50% inhibition of deacetylation; substrate at Km; unit inferred, text gives nm; read-out: HDAC Inhibition
Reported pIC50 values for a set of molecules
Formally, pIC50 is defined as -log10 of the concentration c, with c in mol/L.

A selection of reference data follows.
O=C(NO)c1ccc(-c2cccc(CN(CCc3ccccc3)Cc3ccccc3)c2)s1 6.03
O=C(/C=C/c1ccc(C(=O)NO)s1)Nc1ccccc1 6.40
O=C(/C=C/c1ccc(C(=O)NO)s1)NC1CCCCC1 6.18

Ask: Reported pIC50 for "O=C(Nc1ccc(C(=O)NO)s1)c1ccc2ccccc2c1" : what is it?
Result: 6.14
